Field: MBC. Provide a value for each of the compounds that follow.
- Test system: P. acnes
- ASSAY_COMMENT: MIC and MBC against 16 clinical isolates of P. acnes (broth microdilution, no sebum)
- Type: cell-based, Propionibacterium acnes
- PROTOCOL_CONDITIONS: Cutibacterium acnes; 16 P. acnes isolates; no sebum; read-out: MBC50

Suppose we examine the compound O=C(O)c1ccccc1O ; what MBC value has been reported?
2000 µg/mL

Same again, this time with [H]/N=C(\N/C(=N/[H])NCCCCCCNC(=N)NC(=N)Nc1ccc(Cl)cc1)Nc1ccc(Cl)cc1
≤ 10 µg/mL

Same again, this time with CC[C@H]1OC(=O)[C@H](C)[C@@H](O[C@H]2C[C@@](C)(OC)[C@@H](O)[C@H](C)O2)[C@H](C)[C@@H](O[C@@H]2O[C@H](C)C[C@H](N(C)C)[C@H]2O)[C@](C)(O)C[C@@H](C)C(=O)[C@H](C)[C@@H](O)[C@]1(C)O
> 64 µg/mL

Same again, this time with CCC[C@@H]1C[C@@H](C(=O)N[C@@H]([C@H]2O[C@H](SC)[C@H](O)[C@@H](O)[C@H]2O)[C@H](C)Cl)N(C)C1
> 64 µg/mL

Same again, this time with O=C(OOC(=O)c1ccccc1)c1ccccc1 [Benzoyl peroxide, benzoyl peroxide]
200 µg/mL

Same again, this time with CN(C)[C@@H]1C(O)=C(C(N)=O)C(=O)[C@@]2(O)C(O)=C3C(=O)c4c(O)cccc4[C@@](C)(O)[C@H]3C[C@@H]12
> 16 µg/mL
